# fold increase vs WT per entry
- system.name: T1, FcγRIIB (form not stated) (UniProt P31994 43-217, limits assumed)
- T1 construct: also called FcγRIIB (ELISA)
- T1 sequence (looked up): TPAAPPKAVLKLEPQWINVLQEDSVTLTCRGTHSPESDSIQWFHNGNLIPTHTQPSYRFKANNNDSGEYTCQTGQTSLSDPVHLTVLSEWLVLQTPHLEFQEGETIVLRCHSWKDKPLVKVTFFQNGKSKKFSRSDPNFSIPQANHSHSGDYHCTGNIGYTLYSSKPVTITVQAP
- experiment.description: ELISA
Your answer is read as x, so omit the unit and give the number.

binder	unit.abbreviation	fold increase vs WT
ch4-4-20 K222N, T335N, K370E, A378V, T394M (antibody) heavy: ASTKGPSVFPLAPSSKSTSGGTAALGCLVKDYFPEPVTVSWNSGALTSGVHTFPAVLQSSGLYSLSSVVTVPSSSLGTQTYICNVNHKPSNTKVDKKVEPKSCDNTHTCPPCPAPELLGGPSVFLFPPKPKDTLMISRTPEVTCVVVDVSHEDPEVKFNWYVDGVEVHNAKTKPREEQYNSTYRVVSVLTVLHQDWLNGKEYKCKVSNKALPAPIEKNISKAKGQPREPQVYTLPPSRDELTKNQVSLTCLVEGFYPSDIVVEWESNGQPENNYKTMPPVLDSDGSFFLYSKLTVDKSRWQQGNVFSCSVMHEALHNHYTQKSLSLSPGK	x	7

Next up:
Exercise: Find the recorded fold increase vs WT belonging to ch4-4-20 G316D, A378V, D399E (antibody) heavy: ASTKGPSVFPLAPSSKSTSGGTAALGCLVKDYFPEPVTVSWNSGALTSGVHTFPAVLQSSGLYSLSSVVTVPSSSLGTQTYICNVNHKPSNTKVDKKVEPKSCDKTHTCPPCPAPELLGGPSVFLFPPKPKDTLMISRTPEVTCVVVDVSHEDPEVKFNWYVDGVEVHNAKTKPREEQYNSTYRVVSVLTVLHQDWLNDKEYKCKVSNKALPAPIEKTISKAKGQPREPQVYTLPPSRDELTKNQVSLTCLVKGFYPSDIVVEWESNGQPENNYKTTPPVLESDGSFFLYSKLTVDKSRWQQGNVFSCSVMHEALHNHYTQKSLSLSPGK and report it.
Key: 14
